measurement-target: HMGCR (TM1-8)-GFP (Cricetulus griseus)
Sequence (P00347 1-346): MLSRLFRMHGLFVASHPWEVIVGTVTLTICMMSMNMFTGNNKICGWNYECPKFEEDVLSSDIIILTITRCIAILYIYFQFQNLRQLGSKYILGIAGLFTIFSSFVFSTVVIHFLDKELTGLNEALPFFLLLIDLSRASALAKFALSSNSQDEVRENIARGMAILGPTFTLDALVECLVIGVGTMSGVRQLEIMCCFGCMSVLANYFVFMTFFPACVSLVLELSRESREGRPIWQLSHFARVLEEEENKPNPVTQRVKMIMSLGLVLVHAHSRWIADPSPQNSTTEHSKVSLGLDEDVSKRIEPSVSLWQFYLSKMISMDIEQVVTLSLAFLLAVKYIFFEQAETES
assay-overview: HMGCR (TM1-8)-GFP fluorescent assay (high-content imaging) in CHG cells
conditions: read-out: Mean (HMGCR (TM1-8)-GFP signal relative to 0 μM = 100)
Recorded remaining activity at 1.25 µM by entry
endpoint-label: remaining activity at 1.25 µM (%)

> print(dat)
                                   compound                 endpoint.label  value.reported
1  CCC(O)CCCC[C@@H](C)C1CCC2C3C(CC[C@@]21C)[C@@]1(C)CC[C@H](O)C(C)(C)C1=C[C@@H]3O (stereo partly drawn)  remaining activity at 1.25 µM            39.2
2  C[C@H](CCCO)C1CCC2C3C(CC[C@@]21C)[C@@]1(C)CC[C@H](O)C(C)(C)C1=C[C@@H]3O (stereo partly drawn)  remaining activity at 1.25 µM            92.8
3  C=CCC(O)(CC=C)CCCC[C@@H](C)C1CCC2C3C(CC[C@@]21C)[C@@]1(C)CC[C@H](O)C(C)(C)C1=C[C@@H]3O (stereo partly drawn)  remaining activity at 1.25 µM            56.5
